Biological target: T1, Arap3-Sam wild-type (human, UniProt Q8WWN8 1-80)
T1 sequence (looked up): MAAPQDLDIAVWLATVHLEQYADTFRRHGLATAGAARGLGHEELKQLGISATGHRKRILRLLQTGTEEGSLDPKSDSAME
Assay: SPR
Value kind: Kd (nM)

INSERT INTO measurements (binder, reported_result) VALUES
  ('first Sam domain of Odin (Odin-Sam1) (domain or fragment, human, UniProt Q92625 691-770, looked up) ISGLRTLEQSVGEWLESIGLQQYESKLLLNGFDDVHFLGSNVMEEQDLRDIGISDPQHRRKLLQAARSLPKVKALGYDGN', 2900);
